Documented pKd across a set of molecules
assay-details: Binding affinity to immobilized HIV1 YU2 gp120 by surface plasmon resonance method
Set-up: species or system Human immunodeficiency virus 1
Entry type: numeric. Quantity: pKd, the -log10 of concentration in molar units.

Look over these answered cases.
- chemical-string: "CC[C@H](C)[C@H](NC(=O)[C@@H](N)CCCNC(=N)N)C(=O)N[C@@H](CC(N)=O)C(=O)N[C@@H](CC(N)=O)C(=O)N[C@H](C(=O)N1C[C@@H](n2cc(C3=CCCCC3)nn2)C[C@H]1C(=O)N[C@@H](Cc1c[nH]c2ccccc12)C(=O)N[C@@H](CO)C(=O)N[C@@H](CCC(=O)O)C(=O)N[C@@H](C)C(=O)N[C@@H](CCSC)C(=O)N[C@@H](CCSC)C(=O)O)[C@@H](C)CC"
  pKd: 7.01
- chemical-string: "CC[C@H](C)[C@H](NC(=O)[C@@H](N)CCCNC(=N)N)C(=O)N[C@@H](CC(N)=O)C(=O)N[C@@H](CC(N)=O)C(=O)N[C@H](C(=O)N1C[C@@H](n2cc(-c3ccc(N)cc3)nn2)C[C@H]1C(=O)N[C@@H](Cc1c[nH]c2ccccc12)C(=O)N[C@@H](CO)C(=O)N[C@@H](CCC(=O)O)C(=O)N[C@@H](C)C(=O)N[C@@H](CCSC)C(=O)N[C@@H](CCSC)C(=O)O)[C@@H](C)CC"
  pKd: 6.36
- chemical-string: "CC[C@H](C)[C@H](NC(=O)[C@@H](N)CCCNC(=N)N)C(=O)N[C@@H](CC(N)=O)C(=O)N[C@@H](CC(N)=O)C(=O)N[C@H](C(=O)N1C[C@@H](n2cc(-c3ccccc3)nn2)C[C@H]1C(=O)N[C@@H](Cc1c[nH]c2ccccc12)C(=O)N[C@@H](CO)C(=O)N[C@@H](CCC(=O)O)C(=O)N[C@@H](C)C(=O)N[C@@H](CCSC)C(=O)N[C@@H](CCSC)C(=O)O)[C@@H](C)CC"
  pKd: 7.64

Now examine the next entry.
Find the recorded pKd belonging to CC[C@H](C)[C@H](NC(=O)[C@@H](N)CCCNC(=N)N)C(=O)N[C@@H](CC(N)=O)C(=O)N[C@@H](CC(N)=O)C(=O)N[C@H](C(=O)N1C[C@@H](n2cc(-c3ccc(OC)cc3)nn2)C[C@H]1C(=O)N[C@@H](Cc1c[nH]c2ccccc12)C(=O)N[C@@H](CO)C(=O)N[C@@H](CCC(=O)O)C(=O)N[C@@H](C)C(=O)N[C@@H](CCSC)C(=O)N[C@@H](CCSC)C(=O)O)[C@@H](C)CC and report it.
6.81

###

assay-details: Binding affinity to immobilized HIV1 YU2 gp120 by surface plasmon resonance method
Set-up: species or system Human immunodeficiency virus 1
Documented Kd across a set of compounds
Your answer is read as nM, so omit the unit and give the number.

- chemical-string: "CC[C@H](C)[C@H](NC(=O)[C@@H](N)CCCNC(=N)N)C(=O)N[C@@H](CC(N)=O)C(=O)N[C@@H](CC(N)=O)C(=O)N[C@H](C(=O)N1C[C@@H](n2cc(-c3ccc(F)cc3)nn2)C[C@H]1C(=O)N[C@@H](Cc1c[nH]c2ccccc12)C(=O)N[C@@H](CO)C(=O)N[C@@H](CCC(=O)O)C(=O)N[C@@H](C)C(=O)N[C@@H](CCSC)C(=O)N[C@@H](CCSC)C(=O)O)[C@@H](C)CC"
  result-unit: "nM"
  Kd: 91
- chemical-string: "CC[C@H](C)[C@H](NC(=O)[C@@H](N)CCCNC(=N)N)C(=O)N[C@@H](CC(N)=O)C(=O)N[C@@H](CC(N)=O)C(=O)N[C@H](C(=O)N1C[C@@H](n2cc(-c3cccc4ccccc34)nn2)C[C@H]1C(=O)N[C@@H](Cc1c[nH]c2ccccc12)C(=O)N[C@@H](CO)C(=O)N[C@@H](CCC(=O)O)C(=O)N[C@@H](C)C(=O)N[C@@H](CCSC)C(=O)N[C@@H](CCSC)C(=O)O)[C@@H](C)CC"
  result-unit: "nM"
  Kd: 54

Now examine the next entry.
Find the recorded Kd belonging to CC[C@H](C)[C@H](NC(=O)[C@@H](N)CCCNC(=N)N)C(=O)N[C@@H](CC(N)=O)C(=O)N[C@@H](CC(N)=O)C(=O)N[C@H](C(=O)N1C[C@@H](n2cc(-c3ccccc3CO)nn2)C[C@H]1C(=O)N[C@@H](Cc1c[nH]c2ccccc12)C(=O)N[C@@H](CO)C(=O)N[C@@H](CCC(=O)O)C(=O)N[C@@H](C)C(=O)N[C@@H](CCSC)C(=O)N[C@@H](CCSC)C(=O)O)[C@@H](C)CC and report it.
1930

###

assay-details: Inhibition of HIV1 YU2 gp120 binding to immobilized CD4 binding site specific b6 monoclonal antibody by surface plasmon resonance method
Parameters: species or system Human immunodeficiency virus 1
endpoint-label: pIC50
Entry type: numeric. Quantity: pIC50, the -log10 of concentration in molar units.

Find the recorded pIC50 belonging to CC[C@H](C)[C@H](NC(=O)[C@@H](N)CCCNC(=N)N)C(=O)N[C@@H](CC(N)=O)C(=O)N[C@@H](CC(N)=O)C(=O)N[C@H](C(=O)N1C[C@@H](n2cc(-c3ccc(CCc4ccccc4)cc3)nn2)C[C@H]1C(=O)N[C@@H](Cc1c[nH]c2ccccc12)C(=O)N[C@@H](CO)C(=O)N[C@@H](CCC(=O)O)C(=O)N[C@@H](C)C(=O)N[C@@H](CCSC)C(=O)N[C@@H](CCSC)C(=O)O)[C@@H](C)CC and report it.
7.07

Find the recorded pIC50 belonging to CC[C@H](C)[C@H](NC(=O)[C@@H](N)CCCNC(=N)N)C(=O)N[C@@H](CC(N)=O)C(=O)N[C@@H](CC(N)=O)C(=O)N[C@H](C(=O)N1C[C@@H](n2cc(-c3ccc(C)cc3)nn2)C[C@H]1C(=O)N[C@@H](Cc1c[nH]c2ccccc12)C(=O)N[C@@H](CO)C(=O)N[C@@H](CCC(=O)O)C(=O)N[C@@H](C)C(=O)N[C@@H](CCSC)C(=O)N[C@@H](CCSC)C(=O)O)[C@@H](C)CC and report it.
6.87

Find the recorded pIC50 belonging to CC[C@H](C)[C@H](NC(=O)[C@@H](N)CCCNC(=N)N)C(=O)N[C@@H](CC(N)=O)C(=O)N[C@@H](CC(N)=O)C(=O)N[C@H](C(=O)N1C[C@@H](n2cc(-c3ccccc3)nn2)C[C@H]1C(=O)N[C@@H](Cc1c[nH]c2ccccc12)C(=O)N[C@@H](CO)C(=O)N[C@@H](CCC(=O)O)C(=O)N[C@@H](C)C(=O)N[C@@H](CCSC)C(=O)N[C@@H](CCSC)C(=O)O)[C@@H](C)CC and report it.
6.97

Find the recorded pIC50 belonging to CC[C@H](C)[C@H](NC(=O)[C@@H](N)CCCNC(=N)N)C(=O)N[C@@H](CC(N)=O)C(=O)N[C@@H](CC(N)=O)C(=O)N[C@H](C(=O)N1CCC[C@H]1C(=O)N[C@@H](Cc1c[nH]c2ccccc12)C(=O)N[C@@H](CO)C(=O)N[C@@H](CCC(=O)O)C(=O)N[C@@H](C)C(=O)N[C@@H](CCSC)C(=O)N[C@@H](CCSC)C(=O)O)[C@@H](C)CC and report it.
5.00

Find the recorded pIC50 belonging to CCc1ccc(-c2cn([C@H]3C[C@@H](C(=O)N[C@@H](Cc4c[nH]c5ccccc45)C(=O)N[C@@H](CO)C(=O)N[C@@H](CCC(=O)O)C(=O)N[C@@H](C)C(=O)N[C@@H](CCSC)C(=O)N[C@@H](CCSC)C(=O)O)N(C(=O)[C@@H](NC(=O)[C@H](CC(N)=O)NC(=O)[C@H](CC(N)=O)NC(=O)[C@@H](NC(=O)[C@@H](N)CCCNC(=N)N)[C@@H](C)CC)[C@@H](C)CC)C3)nn2)cc1 and report it.
6.63

###

assay-details: Inhibition of HIV1 YU2 gp120 binding to immobilized CD4 binding site specific immunoglobulin G b12 monoclonal antibody by surface plasmon resonance method
Design: species or system Human immunodeficiency virus 1
endpoint-label: pIC50
Entry type: numeric. Quantity: pIC50, the -log10 of concentration in molar units.

Look over these answered cases.
- molecule: "CC[C@H](C)[C@H](NC(=O)[C@@H](N)CCCNC(=N)N)C(=O)N[C@@H](CC(N)=O)C(=O)N[C@@H](CC(N)=O)C(=O)N[C@H](C(=O)N1C[C@@H](n2cc(-c3ccc(CCc4ccccc4)cc3)nn2)C[C@H]1C(=O)N[C@@H](Cc1c[nH]c2ccccc12)C(=O)N[C@@H](CO)C(=O)N[C@@H](CCC(=O)O)C(=O)N[C@@H](C)C(=O)N[C@@H](CCSC)C(=O)N[C@@H](CCSC)C(=O)O)[C@@H](C)CC"
  recorded-number: 7.19
- molecule: "CC[C@H](C)[C@H](NC(=O)[C@@H](N)CCCNC(=N)N)C(=O)N[C@@H](CC(N)=O)C(=O)N[C@@H](CC(N)=O)C(=O)N[C@H](C(=O)N1C[C@@H](n2cc(-c3ccccc3)nn2)C[C@H]1C(=O)N[C@@H](Cc1c[nH]c2ccccc12)C(=O)N[C@@H](CO)C(=O)N[C@@H](CCC(=O)O)C(=O)N[C@@H](C)C(=O)N[C@@H](CCSC)C(=O)N[C@@H](CCSC)C(=O)O)[C@@H](C)CC"
  recorded-number: 6.79
- molecule: "CC[C@H](C)[C@H](NC(=O)[C@@H](N)CCCNC(=N)N)C(=O)N[C@@H](CC(N)=O)C(=O)N[C@@H](CC(N)=O)C(=O)N[C@H](C(=O)N1C[C@@H](n2cc(-c3ccc(C)cc3)nn2)C[C@H]1C(=O)N[C@@H](Cc1c[nH]c2ccccc12)C(=O)N[C@@H](CO)C(=O)N[C@@H](CCC(=O)O)C(=O)N[C@@H](C)C(=O)N[C@@H](CCSC)C(=O)N[C@@H](CCSC)C(=O)O)[C@@H](C)CC"
  recorded-number: 6.93
- molecule: "CCc1ccc(-c2cn([C@H]3C[C@@H](C(=O)N[C@@H](Cc4c[nH]c5ccccc45)C(=O)N[C@@H](CO)C(=O)N[C@@H](CCC(=O)O)C(=O)N[C@@H](C)C(=O)N[C@@H](CCSC)C(=O)N[C@@H](CCSC)C(=O)O)N(C(=O)[C@@H](NC(=O)[C@H](CC(N)=O)NC(=O)[C@H](CC(N)=O)NC(=O)[C@@H](NC(=O)[C@@H](N)CCCNC(=N)N)[C@@H](C)CC)[C@@H](C)CC)C3)nn2)cc1"
  recorded-number: 6.72

Now examine the next entry.
Find the recorded pIC50 belonging to CC[C@H](C)[C@H](NC(=O)[C@@H](N)CCCNC(=N)N)C(=O)N[C@@H](CC(N)=O)C(=O)N[C@@H](CC(N)=O)C(=O)N[C@H](C(=O)N1CCC[C@H]1C(=O)N[C@@H](Cc1c[nH]c2ccccc12)C(=O)N[C@@H](CO)C(=O)N[C@@H](CCC(=O)O)C(=O)N[C@@H](C)C(=O)N[C@@H](CCSC)C(=O)N[C@@H](CCSC)C(=O)O)[C@@H](C)CC [RINNIPWSEAMM] and report it.
5.06
